Where do the numbers come from? From patent US20260015426A1.

Target: T1, cyno-M-IL1RAP construct, positions S21-T367 (cynomolgus monkey, UniProt P59822 21-367 (rhesus entry))
T1 construct: Biotinylated when captured on the Biacore chip; also called cy-M-IL1RAP
T1 sequence: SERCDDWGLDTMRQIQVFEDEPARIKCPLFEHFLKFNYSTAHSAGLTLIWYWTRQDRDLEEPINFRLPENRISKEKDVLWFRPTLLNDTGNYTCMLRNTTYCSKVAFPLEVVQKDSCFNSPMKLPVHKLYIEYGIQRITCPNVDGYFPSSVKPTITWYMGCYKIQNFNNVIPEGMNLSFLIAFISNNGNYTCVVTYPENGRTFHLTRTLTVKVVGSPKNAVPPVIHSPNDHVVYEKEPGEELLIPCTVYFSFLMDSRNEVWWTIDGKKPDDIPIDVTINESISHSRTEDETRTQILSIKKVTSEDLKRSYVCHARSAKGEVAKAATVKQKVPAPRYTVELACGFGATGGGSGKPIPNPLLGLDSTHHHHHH
Assay: ELISA, purified mAb
pEC50: −log10 of the molar value.
quantity_kind: pEC50

* 11C5(Hy) (purified mAb from the 11C5 hybridoma) (antibody, V domains shown, Mouse hybridoma mAb; also called 11C5(Hy) mAb; mAb 11C5(Hy)) VH: EVQLVESGGGLVKPGGSLKLSCAASGFTFSNYAMSWVRQTPEKRLEWVATVTEGGDYNYCLDDVKGRFTISRDNANDNLYLQMSHLKSEDSARYYCARDRWPYFFDYWGQGTTLTVSS VL: DIQMTQSPASLSVSVGETVTITCRASENIYSNLAWYQQKQGRSPQLLVYGAKNLADGVPSRFSGSGSGTQYSLNINSLQSEDFGTYYCQHFWTTPRTFGGGTKLEIK | 10.62
* 13D8 (purified mAb from hybridoma 13D8) (antibody, V domains shown, Mouse hybridoma mAb) VH: EVQLVESGGGLVKPGGSLKLSCTASGFTFSNYAMSWVRQTPEKRLEWVATISDGGNYTYYPDNVKGRFTISRDIAKNNLYLQMSHLKSEDTAMYYCARDRWPYFFDFWGQGTTLTVSS VL: DIQMTQSPASLSVSVGETVTITCRASDNIYSNLAWYQEKQGKSPQLLVYGATNLADGVPSRFSGSGSGTQYSLKINSLQSEDFGSYYCQHFWTTPRSFGGGTKLELK | 10.49
* 10A11 (purified mAb from hybridoma 10A11) (antibody, V domains shown, Mouse hybridoma mAb) VH: EVQLQQSGAELVKPGASVRLSCTSSGFNIKDYFMHWVKQRTEQGLEWVGRIDPEDGETQYAPNFQDKATITVDTSSNTVYLQLSSLTSEDTAVYYCFRPLYYGNSPWFAYWGQGTLVTVSP VL: DIQMTQTTSSLSASLGDRVTISCRASQDISNYLNWYQQKPDGTVKLLIYYTSTLHSGVPSRFSGSGSGTDYSLTISNLEPEDIATYYCHQYSKFPPTFGSGTKLEIK | 10.49
* 8H1 (purified mAb from hybridoma 8H1) (antibody, V domains shown, Mouse hybridoma mAb) VH: QVQLQQSGPELVKSGASVRISCKASGYAFSGSWMNWVKQRPGKGLEWIGRIYPGDGNTNYNGKFKDKATLTADKSSSTAFMQLSSLTSEDSAVYFCARDYYLFYFDYWGQGTTLTVSS VL: NIVMTQTPKFLPVAAEDRVIITCKASQDVSNEVAWYQQKPGQSPKLLMYYASNRYTGVPDRFTGSGSGTDFTFTISSVQVEDLAVYFCQQHYSSPLTFGAGTKLELK | 9.59
